Tested on: SK-MEL-2
test description: NCI tumour cell line growth inhibition, 48 h
The source made the active and inactive calls. Cut-off read from the data, not from the text of the source: active = GI50 up to about 1.1 µM and inactive = higher.
outcome measure: GI50

O=C1c2ccccc2OCC1/C=N/O (stereo not given) has a reported GI50 of 86.3 µM (inactive)

"O=C1/C(=C/c2cccc([N+](=O)[O-])c2)COc2ccccc21" has a reported GI50 of 6.1 µM (inactive)

CCOC(=O)C(NC(=O)CC(C)C)(Nc1ccc(S(=O)(=O)Nc2nc(C)cc(C)n2)cc1)C(F)(F)F (stereo not given) has a reported GI50 of > 100 µM (inactive)

"COc1cc(/C=C2/C(=O)N(C(=O)c3ccccc3O)N=C2C)cc(OC)c1OC" has a reported GI50 of 1.44 µM (inactive)

COc1cccc(C2c3cc4c(cc3OC(N3CCOCC3)C2C)OCO4)c1OC (stereo not given) has a reported GI50 of 6.41 µM (inactive)
